- target.desc: UniProt P11309
- Sequence (P11309 whole entry, species assumed): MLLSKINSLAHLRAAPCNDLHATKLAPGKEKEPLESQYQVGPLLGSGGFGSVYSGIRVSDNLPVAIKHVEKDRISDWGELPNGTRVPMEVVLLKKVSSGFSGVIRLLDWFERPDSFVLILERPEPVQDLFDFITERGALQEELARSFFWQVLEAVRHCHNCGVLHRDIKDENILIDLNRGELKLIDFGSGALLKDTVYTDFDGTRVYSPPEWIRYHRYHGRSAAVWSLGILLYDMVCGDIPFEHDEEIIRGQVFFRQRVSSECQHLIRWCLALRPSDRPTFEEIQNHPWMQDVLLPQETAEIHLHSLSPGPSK
Where a name gives a salt, the structure may show the parent alone.
measurement.kind: IC50 (nM)

Example entries and their recorded answers appear below.
Recorded result, CO[C@H](C)COc1cc2nc(-c3nnc4ccc([C@H](N5CC[C@](C)(N)C5)C(F)(F)F)cn34)ccc2cc1F [Example 324, di-hydrochloride] , IC50: 0.18

Recorded result, N[C@H]1CCN([C@H](c2ccc3nnc(-c4ccc5cc(F)cc(OC(F)F)c5n4)n3c2)C(F)(F)F)C1 [Example 228, dihydrochloride] , IC50: 0.79

Recorded result, N[C@H]1CCN([C@H](c2ccc3nnc(-c4ccc5ccc(CCO)cc5n4)n3c2)C(F)(F)F)C1 [Example 265, dihydrochloride] , IC50: 0.53

Recorded result, COCCOc1ccc2ccc(-c3nnc4ccc([C@@H](N5CC[C@H](N)C5)C(F)(F)F)cn34)nc2c1Cl [Example 174, hydrochloride] , IC50: 1.1

Recorded result, N[C@@H]1CCN([C@H](c2ccc3nnc(-c4ccc5cccc(C6CC6)c5n4)n3c2)C(F)(F)F)C1 [Example 47, dihydrochloride] , IC50: 0.09

Recorded result, CCOc1ccc2ccc(-c3nnc4ccc([C@H](N5CC[C@](C)(N)C5)C(F)(F)F)cn34)nc2c1 [Example 262, dihydrochloride] , IC50: 0.22

Recorded result, COC[C@@H](C)Oc1cc(F)cc2ccc(-c3nnc4ccc([C@@H](N5CC[C@H](N)C5)C(F)(F)F)cn34)nc12 [Example 159, dihydrochloride] , IC50: 0.14

Recorded result, COc1ccc2ccc(-c3nnc4ccc([C@@H](N5CC[C@H](N)C5)C(F)(F)F)cn34)nc2c1F [Example 167, dihydrochloride] , IC50: 2.04

(a) FC(F)(F)[C@H](c1ccc2nnc(-c3ccc4cccc(OCC5CC5)c4n3)n2c1)N1C[C@@H]2C[C@H]1CN2 [Example 76, dihydrochloride]
(b) CC(C)Oc1c(F)ccc2ccc(-c3nnc4ccc([C@@H](N5CC[C@H](N)C5)C(F)(F)F)cn34)nc12 [Example 109, hydrochloride]
**Q:** Name the one with the greater IC50 value, either a or b as given. Answer = label.
**A:** a
(a: 0.4 nM, b: 0.28 nM)

(I) COC(C)(C)COc1cccc2ccc(-c3nnc4ccc([C@@H](N5CC[C@H](N)C5)C(F)(F)F)cn34)nc12 [Example 276, formate]
(II) COc1cccc2ccc(-c3nnc4ccc([C@@H](N5CC[C@](C)(N)C5)C(F)(F)F)cn34)nc12 [Example 246, dihydrochloride]
(III) Cn1cc(-c2ccc3ccc(-c4nnc5ccc([C@@H](N6CC[C@H](N)C6)C(F)(F)F)cn45)nc3c2)cn1 (single isomer, unassigned) [Example 15, tri-hydrochloride]
(IV) COc1cc2nc(-c3nnc4ccc([C@@H](N5C[C@@H](N)[C@H](F)C5)C(F)(F)F)cn34)ccc2cc1F [Example 211, dihydrochloride]
**Q:** Rank items: key IC50, increasing. List labels; respect the requested ordering.
**A:** III, I, IV, II

(I) N[C@H]1CCN([C@H](c2ccc3nnc(-c4ccc5cc(F)c(OCC(F)(F)F)cc5n4)n3c2)C(F)(F)F)C1 [Example 226, dihydrochloride]
(II) CC(C)(O)COc1ccc2ccc(-c3nnc4ccc([C@H](N5CC[C@](C)(N)C5)C(F)(F)F)cn34)nc2c1 [Example 297, dihydrochloride]
(III) N[C@H]1CCN([C@@H](c2ccc3nnc(-c4ccc5cccc(OCC6CC6)c5n4)n3c2)C(F)(F)F)C1 (single isomer, unassigned) [Example 10, dihydrochloride]
**Q:** Hey, quick one: sort these by IC50, largest value first please. List labels; respect the requested ordering.
**A:** III, I, II
